Reported pKd by item:
- MEASURED_TARGET: phosphorylated opsin (OpsP) in membranes (bovine, UniProt P02699 1-348, phosphorylated by native rhodopsin kinase (sites not given))
- Sequence (P02699 whole entry): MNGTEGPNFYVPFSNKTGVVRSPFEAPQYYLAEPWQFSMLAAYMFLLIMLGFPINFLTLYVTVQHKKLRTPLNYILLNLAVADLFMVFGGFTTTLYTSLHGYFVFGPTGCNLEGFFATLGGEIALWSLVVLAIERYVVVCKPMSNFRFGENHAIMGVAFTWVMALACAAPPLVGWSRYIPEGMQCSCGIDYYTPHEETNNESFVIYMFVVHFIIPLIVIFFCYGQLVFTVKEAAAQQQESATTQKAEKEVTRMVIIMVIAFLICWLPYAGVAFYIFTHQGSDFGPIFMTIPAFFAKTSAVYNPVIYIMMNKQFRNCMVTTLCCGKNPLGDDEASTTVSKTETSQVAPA
- TEST_NAME: co-sedimentation
The value called pKd is obtained by taking minus log10 of the concentration in mol/L.

Example results:
IKENLKDCGLF [GtαCT, wild-type Gtα C-terminal peptide]; 3.06
ILENLKDCGLF [GtαCT-HA, high-affinity version of the Gtα C-terminal peptide]; 3.49
YGQEDIDVMGL [ArrFL-1, peptide analogue of the finger loop of rod photoreceptor arrestin]; 2.77

Please examine the following record next.
query: Report pKd, nothing else, for this binder: YGREDLDVLGL [ArrFL-2/3, finger loop peptide of beta-arrestin-1 and beta-arrestin-2]
result: 2.62
